# Subject of test: NPY4R (Homo sapiens)
# Construct: purchased Promega (in-house HiBiT-GPCR construct library, NanoBRET)
# Sequence (P50391 whole entry): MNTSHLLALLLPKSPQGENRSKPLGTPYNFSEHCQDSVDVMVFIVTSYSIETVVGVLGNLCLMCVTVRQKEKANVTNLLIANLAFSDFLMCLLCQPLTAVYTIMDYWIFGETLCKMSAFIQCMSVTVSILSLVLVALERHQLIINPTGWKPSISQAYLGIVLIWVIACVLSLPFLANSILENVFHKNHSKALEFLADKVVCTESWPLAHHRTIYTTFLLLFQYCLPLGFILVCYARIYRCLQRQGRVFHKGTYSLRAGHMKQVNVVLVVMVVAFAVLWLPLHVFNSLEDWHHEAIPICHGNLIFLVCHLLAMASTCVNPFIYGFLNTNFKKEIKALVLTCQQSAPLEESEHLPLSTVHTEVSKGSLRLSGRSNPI
# Measurement protocol: NanoBRET screen HiBiT-NPY4R in HEK293
# Assay type: binding
# Details: NPY4R; tracer 0.1μM
Entries whose NanoBRET Fold Response is below 1 take yes (1); entries at or above 1 take no (0).

CCCn1c(=O)c2[nH]c(-c3ccc(OCC(=O)NCCNC(=O)CCOCCNC(=O)c4ccc(CNC(=O)CCc5ccc6n5[B-](F)(F)[N+]5=C(c7ccc[nH]7)C=CC5=C6)cc4)cc3)nc2n(CCC)c1=O [XAC-3-NB590]: yes (1)
COc1ccccc1N1CCN(CCCCN2C(=O)c3ccc(CNC(=O)CCOCCOCCOCCOCCNC(=O)CCc4ccc5n4[B-](F)(F)[N+]4=C(c6ccc[nH]6)C=CC4=C5)cc3C2=O)CC1 [NAN-190-2-NB590]: yes (1)
COc1ccccc1N1CCN(CCCCN2C(=O)c3ccc(CNC(=O)CCOCCNC(=O)c4ccc(CNC(=O)CCc5ccc6n5[B-](F)(F)[N+]5=C(c7ccc[nH]7)C=CC5=C6)cc4)cc3C2=O)CC1 [NAN-190-3-NB590]: no (0)
CC(C)N(CC[C@H](c1ccccc1)c1cc(CCNC(=O)CCOCCOCCOCCOCCNC(=O)CCc2ccc3n2[B-](F)(F)[N+]2=C(c4ccc[nH]4)C=CC2=C3)ccc1O)C(C)C [Tolterodine-2-NB590]: yes (1)

###

# Subject of test: NMUR2 (Homo sapiens, UniProt Q9GZQ4)
# Construct: purchased Promega (in-house HiBiT-GPCR construct library, NanoBRET)
# Sequence (Q9GZQ4 whole entry): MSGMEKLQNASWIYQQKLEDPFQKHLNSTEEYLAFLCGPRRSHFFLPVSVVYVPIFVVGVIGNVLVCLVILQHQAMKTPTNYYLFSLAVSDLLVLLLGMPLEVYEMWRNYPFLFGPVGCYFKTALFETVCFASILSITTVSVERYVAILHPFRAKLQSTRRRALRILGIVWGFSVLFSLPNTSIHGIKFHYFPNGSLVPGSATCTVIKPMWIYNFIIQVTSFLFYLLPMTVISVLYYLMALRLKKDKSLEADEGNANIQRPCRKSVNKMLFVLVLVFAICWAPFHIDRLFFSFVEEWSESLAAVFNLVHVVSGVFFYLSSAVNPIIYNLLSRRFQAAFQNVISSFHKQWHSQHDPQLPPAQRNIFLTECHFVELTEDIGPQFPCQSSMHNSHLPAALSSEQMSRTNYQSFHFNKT
# Measurement protocol: NanoBRET screen HiBiT-NMUR2 in HEK293
# Assay type: binding
# Details: NMUR2; tracer 1μM
# Description: Each tracer candidate was screened across the entire library of HiBiT-GPCR constructs using NanoBRET as the detection modality. As depicted in Figure 4A, the specificity of interactions was evaluated through decrease in BRET due to competitive displacement of a bound tracer by excess parental compound. Each tracer was analyzed for binding to each HiBiT-GPCR fusion in the absence and in the presence of competing parental compound. […]
Quantity measured: NanoBRET Fold Response

Cc1cc2c(s1)Nc1ccccc1N=C2N1CCN(CCCNC(=O)CCOCCOCCOCCOCCNC(=O)CCc2ccc3n2[B-](F)(F)[N+]2=C(c4ccc[nH]4)C=CC2=C3)CC1: 0.98
CC(C)N(CC[C@H](c1ccccc1)c1cc(CCNC(=O)CCOCCOCCOCCOCCNC(=O)CCc2ccc3n2[B-](F)(F)[N+]2=C(c4ccc[nH]4)C=CC2=C3)ccc1O)C(C)C: 1.07
O=C(CCc1ccc2n1[B-](F)(F)[N+]1=C(c3ccc[nH]3)C=CC1=C2)NCCOCCOCCNC(=O)OCCOCCN1CCN(C2=Nc3ccccc3Sc3ccccc32)CC1: 0.82
COc1ccccc1N1CCN(CCCCN2C(=O)c3ccc(CNC(=O)CCOCCNC(=O)c4ccc(CNC(=O)CCc5ccc6n5[B-](F)(F)[N+]5=C(c7ccc[nH]7)C=CC5=C6)cc4)cc3C2=O)CC1: 0.75
CC(C)N(CC[C@H](c1ccccc1)c1cc(CCNC(=O)c2ccc(CNC(=O)CCc3ccc4n3[B-](F)(F)[N+]3=C(c5ccc[nH]5)C=CC3=C4)cc2)ccc1O)C(C)C: 1.06
